system: PA-1; test: Primary qHTS to identify gynecologic anti-cancer compounds using libraries of approved drugs and bioactive compounds (AID 1345084); conditions: Gynecologic cancer cell panel viability, ATPlite luminescence, 48 h; series mostly up to 57.5 µM; also: nearly all actives have a fitted effect of over 55% in size
Records with an inconclusive call do not appear. Calls of active or inactive are those of the source. Calls follow the shape of the dose curve; as a rule, active = well fitted cell-killing curve with a large enough effect; inconclusive = small, poorly fitted or top-dose-only effect, or effect the other way; inactive = flat fitted curve, though single readings scatter.
Outcome codes: label 1 (active), label 0 (inactive)

[[record]]
compound = "CC(=O)Nc1ccc(CC(=O)O)cc1"
system_under_test = "PA-1"
answer_label = "label 0"

[[record]]
compound = "CC(C)(C)NC[C@H](O)COc1cccc2c1CCCC2=O"
system_under_test = "PA-1"
answer_label = "label 0"

[[record]]
compound = "NS(=O)(=O)c1cc2c(cc1Cl)NC(CC1CCCC1)NS2(=O)=O (configuration not stated)"
system_under_test = "PA-1"
answer_label = "label 0"

[[record]]
compound = "O=S(c1cc(Cl)cc(Cl)c1O)c1cc(Cl)cc(Cl)c1O"
system_under_test = "PA-1"
answer_label = "label 0"

[[record]]
compound = "CCOc1ccccc1C(N)=O"
system_under_test = "PA-1"
answer_label = "label 0"

[[record]]
compound = "COc1ccc(C(=O)c2ccccc2)c(O)c1"
system_under_test = "PA-1"
answer_label = "label 0"

[[record]]
compound = "C=C[C@@]1(C)CC(=O)[C@]2(O)[C@@]3(C)[C@@H](O)CCC(C)(C)[C@@H]3[C@H](O)[C@H](OC(C)=O)[C@@]2(C)O1"
system_under_test = "PA-1"
answer_label = "label 0"

[[record]]
compound = "O=C(NCCc1c[nH]c2ccccc12)c1cccnc1"
system_under_test = "PA-1"
answer_label = "label 0"

[[record]]
compound = "Cc1ncc(CO)c(C=O)c1O"
system_under_test = "PA-1"
answer_label = "label 0"

[[record]]
compound = "COP(=O)(OC)OC(c1ccc(Cl)cc1)P(=O)(OC)OC (configuration not stated)"
system_under_test = "PA-1"
answer_label = "label 0"

[[record]]
compound = "Cc1ccc2c(Br)cc(Br)c(O)c2n1"
system_under_test = "PA-1"
answer_label = "label 1"

[[record]]
compound = "CCOc1ccc(NC(C)=O)cc1"
system_under_test = "PA-1"
answer_label = "label 0"


====

test: Primary qHTS for inhibitors of nuclear receptor binding SET domain protein 2 (NSD2) in an RCH-ACV wild type WT cells (2C) (AID 1645877); settings: RCH-ACV (leukaemia line) NSD2 WT (2C) viability, CellTiter-Glo, 72 h; series mostly up to 44.9 µM; also: nearly all actives have a fitted effect of over 70% in size
Inconclusive results are not listed. The source made the active and inactive calls. Calls follow the shape of the dose curve; as a rule, active = well fitted inhibition curve with a large enough effect; inconclusive = small, poorly fitted or top-dose-only effect; inactive = no such curve, though single readings can be large or run the other way.
Outcome codes: yes for active, no for inactive

[[record]]
molecule = "CCO[C@@H]1O[C@H](C(COCc2ccccc2)OCc2ccccc2)[C@H](OCc2ccccc2)[C@H]1O (stereo not given in full)"
answer_label = "yes"

[[record]]
molecule = "C[C@@]12C(=O)OC(=O)[C@]1(C)C1CCC2O1"
answer_label = "yes"

[[record]]
molecule = "O=C(Nc1ccc([N+](=O)[O-])cc1)Nc1ccc([N+](=O)[O-])cc1"
answer_label = "no"

[[record]]
molecule = "CC[C@]12CCCN3CCc4c(n(c5ccccc45)C(=O)C1)[C@@H]32"
answer_label = "yes"

[[record]]
molecule = "CCC(Cc1c(I)cc(I)c(N)c1I)C(=O)O (stereo not given)"
answer_label = "no"


====

Each entry below carries its reported Potency.
experiment: Drug repurposing screens with cells derived from glioblastoma tumor samples (AID 1345199); conditions: GBM patient neurospheres viability, ATP luminescence, 48 h; tumour line A; also: potency is read from the fitted curve at half-maximal effect; nearly all actives have a fitted effect of over 40% in size
Inconclusive results are not listed. The source made the active and inactive calls. The call rests on the fitted dose curve; in most records, active means well fitted inhibition curve with a large enough effect; inconclusive means small, poorly fitted or top-dose-only effect; inactive means flat fitted curve, though single readings scatter.
metric: Potency

[[record]]
molecule = "COc1ccc(C(Cl)=C(c2ccc(OC)cc2)c2ccc(OC)cc2)cc1"
metric = "Potency"
value_measured = "11.2 µM (active)"

[[record]]
molecule = "O=C(Nc1ccccc1)OCC(CN1CCCCC1)OC(=O)Nc1ccccc1 (configuration not stated)"
metric = "Potency"
value_measured = "11.2 µM (active)"

[[record]]
molecule = "NCCNc1cccc2ccccc12"
metric = "Potency"
value_measured = "20 µM (active)"

[[record]]
molecule = "CN1CCC(OC(c2ccccc2)c2ccccc2)CC1"
metric = "Potency"
value_measured = "7.08 µM (active)"

[[record]]
molecule = "CCCCCCCCCCCCSCCOCCO"
metric = "Potency"
value_measured = "35.5 µM (active)"

[[record]]
molecule = "CCN(CC)CCNC(=O)c1cc(Br)c(N)cc1OC"
metric = "Potency"
value_measured = "7.94 µM (active)"

[[record]]
molecule = "O=C(NC1CCN(CCc2c[nH]c3ccccc23)CC1)c1ccccc1"
metric = "Potency"
value_measured = "11.2 µM (active)"

[[record]]
molecule = "C#C[C@]1(O)CC[C@H]2[C@@H]3CCc4cc(OC)ccc4[C@H]3CC[C@@]21C"
metric = "Potency"
value_measured = "39.8 µM (active)"

[[record]]
molecule = "CCc1ccc(C(=O)C(C)CN2CCCCC2)cc1 (configuration not stated)"
metric = "Potency"
value_measured = "17.8 µM (active)"

[[record]]
molecule = "CCOCCn1c(N2CCCN(C)CC2)nc2ccccc21"
metric = "Potency"
value_measured = "17.8 µM (active)"

[[record]]
molecule = "CCOC(=O)C(C#N)=C(c1ccccc1)c1ccccc1"
metric = "Potency"
value_measured = "11.2 µM (active)"

[[record]]
molecule = "C=C[C@H]1CN2CC[C@H]1C[C@@H]2[C@@H](O)c1ccnc2ccc(OC)cc12"
metric = "Potency"
value_measured = "12.6 µM (active)"

[[record]]
molecule = "COc1ccc(CCN(C)CCCN2CCc3cc(OC)c(OC)cc3CC2=O)cc1OC"
metric = "Potency"
value_measured = "28.2 µM (active)"

[[record]]
molecule = "CCN1CCCC(OC(=O)C(c2ccccc2)c2ccccc2)C1 (configuration not stated)"
metric = "Potency"
value_measured = "8.91 µM (active)"

[[record]]
molecule = "O=C(c1ccc(F)cc1)C1CCN(CCn2c(=S)[nH]c3ccccc3c2=O)CC1"
metric = "Potency"
value_measured = "12.6 µM (active)"

[[record]]
molecule = "CCCCCCCCCCC[C@@H](C[C@@H]1OC(=O)[C@H]1CCCCCC)OC(=O)[C@H](CC(C)C)NC=O"
metric = "Potency"
value_measured = "10 µM (active)"

[[record]]
molecule = "NC(=O)C1(N2CCCCC2)CCN(CCCC(=O)c2ccc(F)cc2)CC1"
metric = "Potency"
value_measured = "10 µM (active)"

[[record]]
molecule = "CN1CCN(C2=Nc3ccccc3Sc3ccc(Cl)cc32)CC1"
metric = "Potency"
value_measured = "7.94 µM (active)"

[[record]]
molecule = "Cc1ccc(O)c([C@H](CCN(C(C)C)C(C)C)c2ccccc2)c1"
metric = "Potency"
value_measured = "3.98 µM (active)"

[[record]]
molecule = "O=c1[nH]c(=O)n([C@H]2C[C@H](O)[C@@H](CO)O2)cc1F"
metric = "Potency"
value_measured = "0.891 µM (active)"

[[record]]
molecule = "CC[C@]12CCCN3CCc4c(n(c5ccccc45)C(=O)C1)[C@@H]32"
metric = "Potency"
value_measured = "6.31 µM (active)"

[[record]]
molecule = "CC(=O)OCC(=O)[C@H]1CC[C@H]2[C@@H]3CCC4=CC(=O)CC[C@]4(C)[C@H]3CC[C@]12C"
metric = "Potency"
value_measured = "8.91 µM (active)"

[[record]]
molecule = "OC(C#CCN1CCCC1)(c1ccccc1)c1ccccc1"
metric = "Potency"
value_measured = "11.2 µM (active)"

[[record]]
molecule = "Cc1cc(CC(=O)O)c(C)n1-c1ccc(Cl)cc1"
metric = "Potency"
value_measured = "25.1 µM (active)"

[[record]]
molecule = "O=C1C(=O)c2ccccc2C(O)=C1C1CCC(c2ccc(Cl)cc2)CC1 (configuration not stated)"
metric = "Potency"
value_measured = "14.1 µM (active)"

[[record]]
molecule = "O=C1c2cccc3c2[C@H](CCC3)CN1[C@@H]1CN2CCC1CC2"
metric = "Potency"
value_measured = "11.2 µM (active)"

[[record]]
molecule = "O=S(c1cc(Cl)cc(Cl)c1O)c1cc(Cl)cc(Cl)c1O"
metric = "Potency"
value_measured = "28.2 µM (active)"

[[record]]
molecule = "NCc1ccccc1Sc1ccccc1CO"
metric = "Potency"
value_measured = "35.5 µM (active)"

[[record]]
molecule = "CN(C)CCOC(c1ccc(Cl)cc1)c1ccccn1 (configuration not stated)"
metric = "Potency"
value_measured = "15.8 µM (active)"

[[record]]
molecule = "CN1CCc2cccc3c2[C@H]1Cc1ccc(O)c(O)c1-3"
metric = "Potency"
value_measured = "11.2 µM (active)"

[[record]]
molecule = "CC[C@H](c1ccc(O)cc1)[C@@H](CC)c1ccc(O)cc1"
metric = "Potency"
value_measured = "14.1 µM (active)"

[[record]]
molecule = "CCO[C@@H]1O[C@H](C(COCc2ccccc2)OCc2ccccc2)[C@H](OCc2ccccc2)[C@H]1O (some centres not stated)"
metric = "Potency"
value_measured = "14.1 µM (active)"

